System: KM12
protocol_description: Antiproliferative activity against human colon cancer cell line KM12
Assay type: functional
Please provide measured GI50 for the entries that follow.
Answers are plain numbers, in µM.

Look over these answered cases.
COc1ccc(-c2nc3cc(F)ccc3s2)cc1F	20.6
COc1cc(OC)cc(-c2nc3cc(F)ccc3s2)c1	7.55
COc1ccc(-c2nc3cc(F)ccc3s2)cc1C	18.6
COc1ccc(-c2nc3cc(Br)ccc3s2)cc1OC	65.2
COc1ccc(-c2nc3cc(F)ccc3s2)cc1O	18.4
Oc1ccc(-c2nc3ccccc3s2)cc1O	15.6
COc1cc(-c2nc3cc(F)ccc3s2)ccc1O	47.3
c1ccc2sc(-c3ccc4c(c3)OCO4)nc2c1	98.6

Batch request: GI50 for each of the following compounds.
1. COc1ccc(-c2nc3cc(F)ccc3s2)cc1Cl
2. COc1ccc(-c2nc3ccccc3s2)cc1OC
3. COc1cc(-c2nc3cc(F)ccc3s2)cc(O)c1OC
4. CCOc1ccc(-c2nc3cc(F)ccc3s2)cc1OCC

[7.05, 74.2, 47.5, 38.5]
